# Test system: OPM-2 (MM)
# Assay notes: Cell killing assay (cell proliferation, Cell Titer-Glo)
# Type: cell-based
# Design: key: NK = no killing; NB = no binding
# Condition parameters: 72 hrs
Reported endpoint: Cell Killing Activity Span

INSERT INTO results (molecule, meas_value) VALUES
  ('Conjugate E: anti-CD74 IgG containing residue 30 conjugated to a PEG4-MMAF precursor (conjugate) VH: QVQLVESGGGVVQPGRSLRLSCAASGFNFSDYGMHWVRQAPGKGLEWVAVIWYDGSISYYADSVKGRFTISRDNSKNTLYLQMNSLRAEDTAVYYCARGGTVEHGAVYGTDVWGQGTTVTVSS VL: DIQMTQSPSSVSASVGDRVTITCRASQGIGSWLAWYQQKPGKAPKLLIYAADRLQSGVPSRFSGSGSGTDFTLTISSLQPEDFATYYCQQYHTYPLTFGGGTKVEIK', 'NK'),
  ('Conjugate A: anti-CD74 IgG with pAMF at heavy chain EU position 404 conjugated to DBCO-PEG4-maytansine (conjugate, non-natural residues) VH: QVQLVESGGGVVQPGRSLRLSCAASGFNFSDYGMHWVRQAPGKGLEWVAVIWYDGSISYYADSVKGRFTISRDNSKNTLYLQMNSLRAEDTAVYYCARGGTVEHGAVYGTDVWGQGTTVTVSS VL: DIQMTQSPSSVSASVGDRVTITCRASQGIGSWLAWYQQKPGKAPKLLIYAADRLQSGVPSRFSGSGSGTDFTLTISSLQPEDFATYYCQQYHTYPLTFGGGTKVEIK', 'NK'),
  ('Conjugate C: anti-CD74 IgG containing residue 30 conjugated to a val-cit-PAB-hemiasterlin precursor (conjugate, non-natural residues) VH: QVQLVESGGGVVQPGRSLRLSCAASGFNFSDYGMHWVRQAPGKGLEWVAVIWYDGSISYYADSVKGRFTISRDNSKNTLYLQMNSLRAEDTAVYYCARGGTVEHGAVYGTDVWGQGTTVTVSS VL: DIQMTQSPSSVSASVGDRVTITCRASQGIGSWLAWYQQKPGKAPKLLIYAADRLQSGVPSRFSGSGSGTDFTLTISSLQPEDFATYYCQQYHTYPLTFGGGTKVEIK', 'NK');
